Assay: qHTS for Inhibitors of the Functional Ribonucleoprotein Complex (vRNP) of Lymphocytic Choriomeningitis Arenaviruses (LCMV): Viability assay - alamar blue signal for LCMV Primary Screen (AID 1347085); note: nearly all actives have a fitted effect of over 80% in size
Details: alamar blue viability counter-screen, LCMV vRNP screen cells; series mostly up to 57.5 µM
Records with an inconclusive call do not appear. The source made the active and inactive calls. Calls come from the whole dose curve; tested in HEK293 reporter line.
Labels: 1 (yes) (active), 0 (no) (inactive)

| molecule | label |
| --- | --- |
| C[C@@H]1O[C@@H](OC2C(O)C(OCCc3ccc(O)c(O)c3)OC(CO)C2OC(=O)/C=C/c2ccc(O)c(O)c2)[C@H](O)[C@H](O)[C@H]1O (some centres not stated) | 0 (no) |
| C=CC(=O)Nc1cc(NC(=O)c2ccc(C)c(NC(=O)c3ccno3)c2)cc(C(F)(F)F)c1 | 0 (no) |
| O=c1[nH]c(=O)c2ncn(C3OC(CO)C(O)C3O)c2[nH]1 (configuration not stated) | 0 (no) |
| CC=CCC=CCCC(=O)[C@H]1O[C@@H]1C(N)=O | 0 (no) |
| C/C=C1/CN2C3CC1C(CO)(C(=O)OC)C2Cc1c3n(C)c2ccccc12 (configuration not stated) | 0 (no) |
| CC(C)=CCC/C(C)=C/CC/C(C)=C/CO | 0 (no) |
| COc1c(C)c2c(c(O)c1CC=C(C)CCC(=O)O)C(=O)OC2 | 1 (yes) |
| CC(C)=CCCC(C)=CCCC(C)=CCCC(C)=CCCC(C)=CCCC(C)=CCCC(C)=CCCC(C)=CCCC(C)=CCO | 1 (yes) |
| COCCCCC(=NOCCN)c1ccc(C(F)(F)F)cc1 | 1 (yes) |
| CC[C@H]1CN2CCc3cc(OC)c(OC)cc3[C@H]2C[C@@H]1C[C@@H]1NCCc2cc(OC)c(OC)cc21 | 1 (yes) |
| CC/C=C\CCOC(=O)c1ccccc1O | 0 (no) |
| C=CCOC(=O)c1ccccc1C(=O)OCC=C | 0 (no) |
| Cc1ccccc1-n1c(Cn2nc(-c3cccc(O)c3)c3c(N)ncnc32)nc2cccc(C)c2c1=O | 1 (yes) |
| CS(C)(=O)=O | 0 (no) |
| COC[C@H](NC(=O)c1cnc(C)s1)C(=O)N[C@@H](COC)C(=O)N[C@@H](Cc1ccccc1)C(=O)[C@@]1(C)CO1 | 1 (yes) |
| Oc1ccccc1Cl | 0 (no) |
| C=CC1CN2CCC1CC2c1[nH]c2ccccc2c1CCO (configuration not stated) | 0 (no) |
| C/C=C(\C)C(=O)O[C@@H]([C@H](O)c1cc2ccc(=O)oc2cc1OC)C(C)(C)O | 0 (no) |
| COc1cc2oc(=O)ccc2cc1[C@H](O)[C@@H](O)C(C)(C)O | 0 (no) |
| O=C(O)c1ccco1 | 0 (no) |
| CC(=O)O[C@H](COc1c2ccoc2cc2oc(=O)ccc12)C(C)(C)O | 0 (no) |
| COc1ccc([C@H]2Cc3cccc(O)c3C(=O)O2)cc1O | 0 (no) |

* * *

Test: VSVG counterscreen qHTS to identify inhibitors of SARS-CoV-2 cell entry (AID 1645847); note: nearly all actives have a fitted effect of over 65% in size
Conditions: VSV-G pseudotyped particle entry, luciferase; series mostly up to 57.2 µM
Inconclusive results are not listed. Active and inactive are the calls of the source. The call rests on the fitted dose curve.
Possible outcomes: active, inactive

| molecule | label |
| --- | --- |
| CCOC(=O)[C@@H](N)Cc1ccc(-c2cc(O[C@H](c3ccc(Cl)cc3-n3ccc(C)n3)C(F)(F)F)nc(N)n2)cc1 | active |
| O=C(Nc1ncc(-c2cc(C(F)F)nn2-c2c(Cl)cccc2Cl)s1)C1CC1 | active |
| COc1cc(C)c(Sc2cnc(NC(=O)c3ccc(CNC(C)C(C)C)cc3)s2)cc1C(=O)N1CCN(C(C)=O)CC1 (centres undefined) | active |
| NCC(=O)Nc1ccc(-n2nc(C(F)(F)F)cc2-c2ccc3c(ccc4ccccc43)c2)cc1 | active |
| CC[C@]1(O)C[C@H]2CN(CCC3=c4ccccc4=N[C]3[C@@](C(=O)OC)(c3cc4c(cc3OC)N(C)[C@H]3[C@@](O)(C(N)=O)[C@H](O)[C@]5(CC)C=CCN6CC[C@]43[C@@H]65)C2)C1 | active |
| CS(=O)(=O)N(Cc1ccco1)CC(O)Cn1c2ccccc2c2ccccc21 (centres undefined) | active |
| C[N+](C)([O-])CCNc1ccc(NCC[N+](C)(C)[O-])c2c1C(=O)c1c(O)ccc(O)c1C2=O | active |
| COc1cc2nccc(Oc3ccc(NC(=O)NC4CC4)c(Cl)c3)c2cc1C(N)=O | active |
| Oc1ccc(-c2nc(-c3ccc(F)cc3)c(-c3ccncc3)[nH]2)cc1 | active |
| CO[C@H]1C(=O)[C@]2(C)[C@@H](OC)C[C@H]3OC[C@@]3(OC(C)=O)[C@H]2[C@H](OC(=O)c2ccccc2)[C@]2(O)C[C@H](OC(=O)[C@H](O)[C@@H](NC(=O)OC(C)(C)C)c3ccccc3)C(C)=C1C2(C)C | active |
| CN1C(=O)C[C@H](C(=O)N[C@@H](Cc2cnc[nH]2)C(=O)N2CCC[C@@H]2C(N)=O)NC1=O | active |
| O=C1NC(=O)C(c2cnc3ccccn23)=C1c1cn2c3c(cccc13)CN(C(=O)N1CCOCC1)CC2 | active |
| O=C(NC1CC1)c1cccc(-c2ccc3c(NC(=O)C4CC4)n[nH]c3c2)c1 | active |
| CC[C@H](C)C(=O)O[C@H]1CCC=C2C=C[C@H](C)[C@H](CC[C@@H]3C[C@@H](O)CC(=O)O3)[C@H]21 | inactive |
| O=C(O)c1ccc(Nc2ncc3c(n2)-c2ccc(Cl)cc2C(c2c(F)cccc2F)=NC3)cc1 | active |
| Cc1c(CN2CCN(S(C)(=O)=O)CC2)sc2c(N3CCOCC3)nc(-c3cnc(N)nc3)nc12 | active |
| CC(C)c1cnn2c(NCc3ccccc3)cc(N[C@@H](CO)[C@H](O)CO)nc12 | active |
| O=C(Cc1ccc(-c2ccc(OCCN3CCOCC3)cc2)cn1)NCc1ccccc1 | active |
| N[C@@H](Cc1ccc(O)c(O)c1)C(=O)O | active |
